The entries below are paired with their reported Max ads..
# Procedure summary: UV spectrum: absorption maxima, molar extinction coefficient and K value
# Type: physicochemical
# Condition: Solvent system Ethanol
Kindly provide the number alone.

As a guide, the following entries are already answered.
Cc1ccc(C=C2C(=O)C3(C)CCC2C3(C)C)cc1 (stereo not drawn); 300
CCCCC(CC)COC(=O)c1ccc(N(C)C)cc1 (stereo not drawn) [Octyl dimethyl PABA, 2-ethylbexyl p-dimethylaminobenzoate]; 311
CCCCC(CC)COC(=O)C=Cc1ccc(OC)cc1 (stereo not drawn) [Octyl methoxycinnamate, 2-ethylhexyl-p-methoxycinnamate]; 311
COc1ccc(C(=O)CC(=O)c2ccc(C(C)(C)C)cc2)cc1; 358
CCCCC(CC)COC(=O)c1ccccc1O (stereo not drawn) [Octyl salicylate, 2-ethylhexyl salicylate]; 307
CC1CC(OC(=O)c2ccccc2O)CC(C)(C)C1 (stereo not drawn) [Homosalate]; 306
Nc1ccc(C(=O)O)cc1; 283
Nc1ccc(C(=O)OCC(O)CO)cc1 (stereo not drawn); 297

Field Max ads. (entry "CC(C)c1ccc(C(=O)CC(=O)c2ccccc2)cc1" ) reads 345
